- System: MOLT-4
- Measurement protocol: Cytotoxicity against human MOLT4 cells assessed as growth inhibition after 48 hrs by sulforhodamine B assay
- Assay type: functional
- Cond: MOLT-4, 48 h
Task for the reader: assign each of the following compounds its reported TGI.
Give bare numbers, in µM.

Hello, I would appreciate it if you could give TGI for each entry below.
1. COc1ccc(C(=O)/C=C/c2cc(-c3ccc4c(c3)OCO4)n[nH]2)cc1OC
2. COc1cc(C(=O)/C=C/c2cc(-c3ccc4c(c3)OCO4)n[nH]2)cc(OC)c1OC
3. COc1ccc(-c2cc(/C=C/C(=O)c3cc(OC)c(OC)c(OC)c3)[nH]n2)cc1OC
4. COc1ccc(C(=O)/C=C/c2cc(-c3cc(OC)c(OC)c(OC)c3)n[nH]2)cc1

Result:
10.3
8.36
8.86
6.82

Go through the items and report each one's TGI.
1. COc1ccc(-c2cc(/C=C/C(=O)c3ccc(OC)c(OC)c3)[nH]n2)cc1
2. COc1cc(-c2cc(/C=C/C(=O)c3ccc(Cl)c(Cl)c3)[nH]n2)cc(OC)c1OC

Result:
1: 8; 2: 40.6
